System: Plasmodium berghei
Assay: Screen against P. berghei liver stage (PbLuc), transformed with Luciferase, at 10uM
Type: functional, HepG2
Details: tested at 10 uM
Out of some 69,000 compounds screened, about 8,600 (12%) showed an effect of 50% or more. What follows is part of a selection rich in strong results, with near analogues and random picks from the rest.
endpoint label: INHIBITION (%)
Report the figure in % without appending any unit label.

Answered cases to consult:
| molecule | INHIBITION / % |
| --- | --- |
| CC(C)N1CCCCC1CCn1cnc2cc(C(F)(F)F)ccc2c1=O (stereo not drawn) | 47.9 |
| Cn1cc(N2C[C@@H]3CN(S(=O)(=O)C4CC4)C[C@@H]3C2=O)cn1 | 9.79 |
| COCCC(=O)Nc1cc(CC(C)(C)C)n[nH]1 | -28.6 |

Find the measured INHIBITION of CN(C)CC1[C@H]2CN(C(=O)c3cc(=O)[nH]c4ccc(F)cc34)C[C@@H]12 (stereo partly drawn) and report it. 43

// fetch INHIBITION given entry CNC(=O)CN1CCO[C@H]2CN(CC3CCOC3)C[C@H]21 (stereo partly drawn) 8.85

State its INHIBITION for this molecule: COc1cc(NCc2ccncc2)c(-c2nn[nH]n2)cc1OC -34.6

Provide measured INHIBITION value, entry: O=S(=O)(c1ccccc1)N1CCC2(CCCN2CC2CCCC2)C1 (stereo not drawn) 71.1

State, in one line, measured INHIBITION of CCS(=O)(=O)N1C[C@H]2CN(c3cnn(C)c3)C(=O)[C@H]2C1 60
